Test: probe aNOTCH3 binding on compound microarray – biochemical, small-molecule microarray, 635/667 nm fluorescence, primary screen (AID 1120);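 also: probe is a biotin-tagged antibody raised against NOTCH3 rather than NOTCH3 protein; score merges spot fluorescence near 667 nm with spot signal to noise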
Conditions: higher = more signal
The label depends only on composite z-score: Met if it is at least 0.03, Not met if it is smaller.

(Q) Is composite z-score at least 0.03? Consider CCOC(=O)C[C@H]1[C@H](OC(=O)c2ccccc2-c2ccccc2)[C@@H](NC(=O)c2ccc3ccccc3c2)c2cc(OCCCO)ccc2N1C(=O)Cc1ccc(OC)cc1
(A) Not met

(Q) What do you get for N#Cc1ccc(-c2cccc(=O)o2)cc1 ?
(A) Met

(Q) What do you get for COCCOC(=O)N1C(=O)[C@@]2(c3ccccc31)[C@H](C(=O)N1CCN(c3ncccn3)CC1)[C@H]1C(=O)O[C@H](c3ccccc3)[C@H](c3ccccc3)N1[C@@H]2c1ccccc1OCCO ?
(A) Met

(Q) What do you get for O=C1[C@@H]2[C@@H](CC(COc3ccccc3)=C([C@H](O)CCc3ccccc3)[C@@H]2CO)C(=O)N1Cc1ccccc1 ?
(A) Met

(Q) What do you get for COC(=O)C1(Cc2ccccc2)C=C2C(=C(C)C(=O)C2C)CN1 (stereo unspecified) ?
(A) Not met

(Q) What do you get for Cc1ccc(S[C@]2(C(=O)NCCCN(C)C)CC(=O)N(C3Cc4ccccc4C3)[C@@H]2c2ccc(CO)cc2I)cc1 ?
(A) Not met

(Q) What do you get for [N-]=[N+]=Nc1ccccc1C[C@@]1(C(=O)NCC(O)CO)N=C(c2ccc(OCCCO)cc2)O[C@@H]1c1ccccc1 (stereo partly specified) ?
(A) Not met

(Q) What do you get for CC1CC/C=C\[C@H]2OC34C=CCN(Cc5ccccc5)C(=O)[C@H]3N(CCCCCCO)C(=O)[C@@H]4C2C(=O)O1 (stereo partly specified) ?
(A) Not met

(Q) What do you get for COC(=O)[C@H](Cc1ccc(O)cc1)N[C@@H](/C=C/C1CC1)[C@H](O)Cc1ccccc1 ?
(A) Not met

(Q) What do you get for COC(=O)[C@@]1(Cc2ccccc2)[C@H]2c3cc(C(=O)N(C)C)n(CCO)c3C[C@H]2CN1C(=O)c1ccccc1 ?
(A) Not met

(Q) What do you get for O=C(NC1CC1)[C@@H]1c2ccccc2C(=O)N(CC23CC4CC(CC(C4)C2)C3)[C@H]1c1ccc(CO)cc1 ?
(A) Met

(Q) What do you get for C=C(COC)/C(=C/C[C@@H](OC(C)=O)c1ccccc1OCCO)c1cnc2ccccc2c1 ?
(A) Met

(Q) What do you get for CN(C)CCCC[C@@H]1NC(=O)[C@@H]2C[C@H](C(=O)NCCCCCCNC(=O)CS)[C@H](c3ccc(O)cc3)N2C1=O ?
(A) Not met

(Q) What do you get for CC(C)=CCCC=C(C)C(O)C1C=CC2C(=O)N(c3ccccc3)C(=O)C2N1Nc1ccc(C#N)cc1 (stereo unspecified) ?
(A) Met

(Q) What do you get for CN(C)c1ccc(C(O)C2C=CC3C(=O)N(Cc4ccccc4)C(=O)C3N2n2cnnc2)cc1 (stereo unspecified) ?
(A) Not met

(Q) What do you get for O=C(NCCN1CCOCC1)[C@@H]1c2ccccc2C(=O)N(Cc2ccc(OC(F)(F)F)cc2)[C@H]1c1ccc(CO)cc1 ?
(A) Not met
